system: MDA-MB-231 breast; assay: NCI tumour cell line growth inhibition, 48 h
This section presents compounds with their documented TGI values.
Enter your answer as a number in µM; do not include the unit.

Worked cases, answers included:
COc1ccc(C(=O)COc2cccc(/C=C3\Oc4ccc5ccccc5c4C3=O)c2)cc1 = 25.6
Cc1ccc2c(c1)[nH]c1cc(C(F)(F)F)ccc1[p+]2=O (stereo not given) = 49.1
CCN1C(=O)C(=C/C=C/c2ccc([N+](=O)[O-])cc2)C(=O)N(CC)C1=S = 47

Query "C[C@H](N)C(=O)Nc1ccc(-c2nc3ccccc3s2)cc1" yields TGI of 36.5

Query "O=C(Nc1ccc(-n2cc(-c3ccncc3)c(-c3ccc(Cl)c(O)c3)n2)cc1)Nc1ccc(Cl)c(C(F)(F)F)c1" yields TGI of 3.31

Query C=C1C(=O)O[C@H]2/C=C(/C)C3=CC(=O)[C@@](C)(C[C@@H](OC(=O)/C(C)=C\C)C12)O3 (stereo not given in full) yields TGI of 11.5

Query "C[C@]12CC[C@@H]3c4ccc(O)cc4CC[C@H]3[C@@H]1CC[C@@H]2NS(=O)(=O)c1cccc(F)c1" yields TGI of 13.6

Query "COc1ccc(Nc2c3ccccc3nc3occ(Cl)c23)cc1" yields TGI of 0.0648

Query "CC(=O)/C=C/c1ccc(C#Cc2ccccc2)s1" yields TGI of 28.2

Query "CC(C)S(=O)(=O)c1ccccc1Nc1nc(Nc2cccc(NC(=O)CN)c2)ncc1Cl" yields TGI of 3.97

====

system: NCI-H522 lung; experiment: NCI tumour cell line growth inhibition, 48 h; in the data active = GI50 below about 0.43 µM; inactive = the rest
Outcome field: choose from active, inactive

O=C(Nc1ccc(-c2ccccc2)cc1)C1CCN(S(=O)(=O)c2ccccc2Cl)CC1 = inactive
C=C1C(=O)O[C@H]2[C@H]1CC/C(COC(=O)c1ccc(Cl)nc1)=C\CC[C@@]1(C)O[C@@H]21 = inactive
COc1cc(C2=C(c3cn(C)c4ccccc34)COC2=O)cc(OC)c1OC = active

Turning now to a further compound:
Hi, do you know how NC(CS/C(Cl)=C/Cl)C(=O)O (centres undefined) came out in this test?
inactive

====

test system: SK-MEL-5 melanoma; experiment: NCI tumour cell line growth inhibition, 48 h
VALUE_KIND: TGI

Worked cases, answers included:
[Au+].[Au+].[Au+].[c-]1nccn1Cc1ccccc1.[c-]1nccn1Cc1ccccc1.[c-]1nccn1Cc1ccccc1 = 6.15 µM
Cc1cc(N/N=C/c2nc(-c3ccc(Br)cc3)oc2C)c2cc(Br)ccc2n1 = 26.1 µM
Cc1cc(C2(O)C=C(C(C)(C)C)C(=O)C(C(C)(C)C)=C2)c(C)cc1C1(O)C=C(C(C)(C)C)C(=O)C(C(C)(C)C)=C1 = > 100 µM
CC1=NN(C(=O)CC(=O)N(C(=O)c2ccccc2Cl)c2ccc(C)cc2)C(=O)C1N=Nc1ccc([N+](=O)[O-])cc1 (centres undefined) = > 100 µM

Query "COC(=O)/C(C)=C/[N+](=O)[O-]" yields TGI of 47.3 µM

Query "O=[N+]([O-])c1ccc2c(c1)C(c1ccccc1Cl)=Nc1cn[nH]c1N2" yields TGI of > 25 µM

Query "C[C@]12CC[C@H](O)C[C@H]1CC[C@@H]1[C@@H]2CC[C@]2(C)[C@@H](C3=CC(=O)OC3)CC[C@]12O" yields TGI of 0.205 µM

Query "Nc1c(Cl)ncnc1N[C@@H]1C[C@H]1CO" yields TGI of > 100 µM

Query COC(=O)N/N=C(\C)C(CN1CCCCC1)C(C1=C(O)c2ccccc2OC1)c1ccccc1 (centres undefined) yields TGI of > 100 µM

Query "O=C(Nc1ccc(CO)cc1)c1coc2ccccc2c1=O" yields TGI of > 100 µM
